Read-out: Apolipoprotein A-V (APOA5) gene, APOA5 (gene 116519)
Test: LTEA_HepaRG_APOA5: Life Technologies and Expression Analysis (LTEA) Assay for Apolipoprotein A-V (APOA5) gene using HepaRG (AID 2283474)
Settings: mRNA level, 48 h; actives raise or lower the signal
The source made the active and inactive calls. Rule for the calls: active = hit-call score of the fitted dose curve at least 0.9, where 1 is the maximum; inactive = score below 0.9.
Parameter call: string, one of y for active, n for inactive

Some entries whose results are on file:
# Compound, Class label
measured = [
    ("CCCN(CCC)C(=O)SCC", "n"),
    ("OB(O)O", "n"),
    ("CCCCC(CC)CN1C(=O)C2C3C=CC(C3)C2C1=O (stereo not given)", "y"),
    ("O=C(O)C1(C(=O)Nc2ccc(Cl)cc2Cl)CC1", "y"),
    ("c1ccc(Nc2ccccc2)cc1", "n"),
    ("CCCCCCC(C)OC(=O)COc1nc(F)c(Cl)c(N)c1Cl (stereo not given)", "n"),
]

Ask: # lookup: test call for CCSC(=O)N(CC(C)C)CC(C)C
Reply: n

Ask: # lookup: test call for CN(C)C(=O)Nc1ccc(Cl)c(Cl)c1
Reply: n

Ask: # lookup: test call for COC(=O)CSc1cc(N=c2sc(=O)n3n2CCCC3)c(F)cc1Cl
Reply: n

Ask: # lookup: test call for CCCCOC(=O)[C@@H](C)Oc1ccc(Oc2ccc(C(F)(F)F)cn2)cc1
Reply: n

Ask: # lookup: test call for COc1c(Cl)ccc(Cl)c1C(=O)O
Reply: n

Ask: # lookup: test call for CCOC(=O)C(C)Oc1ccc(Oc2cnc3cc(Cl)ccc3n2)cc1 (stereo not given)
Reply: n

Ask: # lookup: test call for CCCOC(=O)NCCCN(C)C
Reply: n

Ask: # lookup: test call for CC(=O)[C@H]1CC[C@H]2[C@@H]3CCC4=CC(=O)CC[C@]4(C)[C@H]3CC[C@]12C
Reply: y

----------
Read-out: Bcl-2 (BAD) gene, BAD (gene 572)
Assay: LTEA_HepaRG_BAD: Life Technologies and Expression Analysis (LTEA) Assay for Bcl-2 (BAD) gene using HepaRG (AID 2283469)
Details: mRNA level, 48 h; actives raise or lower the signal
Active and inactive are the calls of the source. The calls were made as follows: active = hit-call score of the fitted dose curve at least 0.9, where 1 is the maximum; inactive = score below 0.9.
Parameter call: string, one of active, inactive

# Compound, Class label
rows = [
    ("O=C(Nc1ccc([N+](=O)[O-])cc1Cl)c1cc(Cl)ccc1O", "active"),
    ("CCC(C)OC(=O)N1CCCCC1CCO (centres undefined)", "inactive"),
    ("CCOC(=O)c1ccc(O)cc1", "inactive"),
]

Ask: # lookup: test call for CCOC(=O)C(C)Oc1ccc(Oc2nc3ccc(Cl)cc3o2)cc1 (centres undefined)
Reply: inactive

Ask: # lookup: test call for OB(O)O
Reply: inactive

Ask: # lookup: test call for C#C[C@]1(O)CC[C@H]2[C@@H]3CCC4=CC(=O)CC[C@@H]4[C@H]3CC[C@@]21CC
Reply: inactive

Ask: # lookup: test call for CC(=O)S[C@@H]1CC2=CC(=O)CC[C@]2(C)[C@H]2CC[C@@]3(C)[C@@H](CC[C@@]34CCC(=O)O4)[C@H]12
Reply: inactive

Ask: # lookup: test call for CC1(C)C(C=C(Cl)Cl)C1C(=O)OCc1cccc(Oc2ccccc2)c1 (centres undefined)
Reply: inactive

Ask: # lookup: test call for CCCOC(=O)NCCCN(C)C
Reply: inactive

All values here come from PubChem BioAssay (EPA / NIEHS).
